- target entity: High-affinity choline transporter 1 (Rattus norvegicus) (UniProt Q9JMD7)
- Sequence (Q9JMD7 whole entry, looked up): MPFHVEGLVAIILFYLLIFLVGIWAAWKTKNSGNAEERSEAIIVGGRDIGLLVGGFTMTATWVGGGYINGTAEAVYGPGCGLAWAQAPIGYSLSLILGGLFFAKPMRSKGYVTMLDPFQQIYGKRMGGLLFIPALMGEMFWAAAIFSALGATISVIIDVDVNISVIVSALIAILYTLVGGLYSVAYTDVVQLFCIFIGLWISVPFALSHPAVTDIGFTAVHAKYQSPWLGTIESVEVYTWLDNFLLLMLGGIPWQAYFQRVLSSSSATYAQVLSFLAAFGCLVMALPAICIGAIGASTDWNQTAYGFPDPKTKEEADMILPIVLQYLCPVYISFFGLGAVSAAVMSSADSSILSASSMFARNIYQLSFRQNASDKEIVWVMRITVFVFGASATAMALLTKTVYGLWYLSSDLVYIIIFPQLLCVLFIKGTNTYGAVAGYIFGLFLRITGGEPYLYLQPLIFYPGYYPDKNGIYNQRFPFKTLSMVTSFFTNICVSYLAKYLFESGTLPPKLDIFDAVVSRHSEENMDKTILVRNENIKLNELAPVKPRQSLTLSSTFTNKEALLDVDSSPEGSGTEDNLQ
- protocol text: Effect on uptake amount of [3H]choline in the hippocampal synaptosomes of AF64A-treated rats at a concentration of 10e-6 M.
- assay setup: Hippocampus
property measured: HACU improvement (%)
// note: answer is a bare numeric in %

CCCCC(=O)Nc1c2c(nc3ccccc13)CCCC2: -1
O=C(CN1CCCC1)Nc1c2c(nc3ccccc13)CCCC2: -20
CC(C)C(=O)Nc1c2c(nc3ccccc13)CCCC2: 9
O=C(CN1CCCCC1=O)Nc1c2c(nc3ccccc13)CCCC2: 2

QUERY: Complete the entry with HACU improvement for Nc1c2c(nc3ccccc13)CCCC2
RESULT: 8

QUERY: Complete the entry with HACU improvement for CC(NCC(=O)Nc1c2c(nc3ccccc13)CCCC2)C(=O)O (stereo unspecified)
RESULT: 6

====

- target entity: High-affinity choline transporter 1 (Rattus norvegicus) (UniProt Q9JMD7)
- protocol text: Effect on uptake amount of [3H]choline in the hippocampal synaptosomes of AF64A-treated rats at a concentration of 10e-7 M.
- assay setup: Hippocampus
Catalogue of HACU improvement readings, one per entry.
// note: answer is a bare numeric in %

QUERY: Complete the entry with HACU improvement for CC(NCC(=O)Nc1c2c(nc3ccccc13)CCCC2)C(=O)O (stereo not drawn)
RESULT: -7

QUERY: Complete the entry with HACU improvement for CNCC(=O)Nc1c2c(nc3ccccc13)CCCC2
RESULT: 8

QUERY: Complete the entry with HACU improvement for O=C(CN1C(=O)CNC1=O)Nc1c2c(nc3ccccc13)CCCC2
RESULT: -5

QUERY: Complete the entry with HACU improvement for O=C(O)CNCC(=O)Nc1c2c(nc3ccccc13)CCCC2
RESULT: -4

QUERY: Complete the entry with HACU improvement for CC(C)C(=O)Nc1c2c(nc3ccccc13)CCCC2
RESULT: 12

QUERY: Complete the entry with HACU improvement for O=C(Cn1ccnc1)Nc1c2c(nc3ccccc13)CCCC2
RESULT: 6

QUERY: Complete the entry with HACU improvement for CCCC(=O)Nc1c2c(nc3ccccc13)CCCC2
RESULT: 13

QUERY: Complete the entry with HACU improvement for O=C(CN1CCCCC1=O)Nc1c2c(nc3ccccc13)CCCC2
RESULT: -3

====

Catalogue of HACU improvement readings, one per entry.
- target entity: High-affinity choline transporter 1 (Rattus norvegicus)
- protocol text: Effect on uptake amount of [3H]choline in the hippocampal synaptosomes of AF64A-treated rats at a concentration of 10e-7 M.
- assay setup: Hippocampus
// note: answer is a bare numeric in %

QUERY: Complete the entry with HACU improvement for CN(C)CC(=O)Nc1c2c(nc3ccccc13)CCCC2
RESULT: 0

QUERY: Complete the entry with HACU improvement for CC(=O)Nc1c2c(nc3ccccc13)CCCC2
RESULT: -12

QUERY: Complete the entry with HACU improvement for CC(C)CC(=O)Nc1c2c(nc3ccccc13)CCCC2
RESULT: 4

QUERY: Complete the entry with HACU improvement for O=C(CN1CCCC1)Nc1c2c(nc3ccccc13)CCCC2
RESULT: 1

QUERY: Complete the entry with HACU improvement for O=C1CN(CC(=O)Nc2c3c(nc4ccccc24)CCCC3)C(=O)N1
RESULT: 15
